- Test name: Body and organ weights after subcutaneous administration in beagle dogs (Example 8)
- Format: in vivo
- Conditions used: 30 mg/kg subcutaneous days 1, 3, 5, 8, 15, 22, 29, end of study
- Method: There were 4 animals per group. Body weights as well as kidney, spleen, liver (with gall bladder), mesenteric lymph node, heart, and thymus weights were measured at the end of the study. […] Ionis SMAD7 oligonucleotides that caused any changes in organ weights outside the expected range for antisense oligonucleotides were excluded from further studies.
Kindly state Mesenteric LN weight for each of the entries shown.
Numbers only, in g.

Consider the following illustrative entries.
830037 (antisense CTATTGGCTGATCTGG; 3-10-3 cEt gapmer, further chemistry not given here) [compound 830037]: 9.0
798781 (CGTAAGATTCACAGCA; 3-10-3 cEt gapmer, further chemistry not given here) [compound 798781]: 7.8

In plain terms, 829994 (GGAGGCAGGGCCGCGA; 3-10-3 cEt gapmer, further chemistry not given here) [compound 829994] has a documented Mesenteric LN weight of 9.0

###

- System: human peripheral blood mononuclear cells (PBMCs)
- Test name: Human PBMC activation assay, cytokine levels (IL-10, IL-6, MCP-1, TNF-α) in supernatant after 24 hours (Example 9)
- Conditions used: human PBMC supernatant after 24 hours; 0.32 μM oligonucleotide
Record 1 whenever Levels of TNF-α is at 4 pg/mL or higher; record -1 when lower.

Answered examples (3):
829994 (GGAGGCAGGGCCGCGA; 3-10-3 cEt gapmer, further chemistry not given here) [compound 829994]: -1
790615 (CCAATGAGAATGCTTC; 3-10-3 cEt gapmer, further chemistry not given here) [compound 790615]: -1
798781 (CGTAAGATTCACAGCA; 3-10-3 cEt gapmer, further chemistry not given here) [compound 798781]: -1

Prompt line: Is Levels of TNF-α at least 4 pg/mL? Consider 830037 (antisense CTATTGGCTGATCTGG; 3-10-3 cEt gapmer, further chemistry not given here) [compound 830037]
Response line: 1

Prompt line: Is Levels of TNF-α at least 4 pg/mL? Consider 830121 (AGAATCAAGCCCTGGC; 3-10-3 cEt gapmer, further chemistry not given here) [compound 830121]
Response line: -1

Prompt line: Is Levels of TNF-α at least 4 pg/mL? Consider 736697 (antisense GTCGCCCCTTCTCCCCGCAGC; chemistry not fully specified) [compound 736697]
Response line: 1

###

- Test system: human SMAD7 mRNA
- Test name: Antisense inhibition of human SMAD7 mRNA expression in Hep3B cells by 5-10-5 MOE gapmers, single concentration, electroporation, RT-PCR (Example 1, Study 1 and 2)
- Assay type: cell-based
- Conditions used: Study 2, electroporation with 15,000 nM antisense oligonucleotide, 5-10-5 MOE gapmers targeting SEQ ID NO: 1 and 2
- Method: Antisense oligonucleotides were designed to target human SMAD7 mRNA and were tested for their effects on SMAD7 mRNA expression in vitro. […] After a treatment period of approximately 24 hours, RNA was isolated from the cells and SMAD7 mRNA levels were measured by quantitative real-time PCR. […] SMAD7 mRNA levels were adjusted according to total RNA content, as measured by RIBOGREEN®. […]
Strand notation (5' to 3'): a small letter for the sugar, then the base; units joined by * are phosphorothioate-linked, units joined directly phosphodiester-linked; [ ] holds rarer units or linkages, { } end groups; capitals alone tell only the bases. e = 2'-O-(2-methoxyethyl) (MOE); [5mC] = 5-methylcytosine; d = 2'-deoxy (DNA)
Property label: % Inhibition (%)
Answers are plain numbers, in %.

Consider the following illustrative entries.
771863 (antisense e[5mC]*e[5mC]*eA*eG*e[5mC]*d[5mC]*d[5mC]*d[5mC]*d[5mC]*dT*d[5mC]*d[5mC]*dT*dG*dG*eG*eA*e[5mC]*eT*eA) [compound 771863]: 9
771413 (eT*eG*eT*e[5mC]*e[5mC]*dG*dT*d[5mC]*dG*d[5mC]*d[5mC]*d[5mC]*d[5mC]*dT*dT*e[5mC]*eT*e[5mC]*e[5mC]*e[5mC]; antisense) [compound 771413]: 24
771375 (antisense e[5mC]*eT*eA*eA*eA*d[5mC]*dA*dG*d[5mC]*dA*dT*dG*dA*dA*dA*eG*eA*e[5mC]*eA*eA) [compound 771375]: 4
771447 (eA*eA*e[5mC]*eA*e[5mC]*dA*dG*d[5mC]*d[5mC]*dT*d[5mC]*dT*dT*dG*dA*e[5mC]*eT*eT*e[5mC]*e[5mC]; antisense) [compound 771447]: 19
771359 (antisense eG*eT*e[5mC]*eA*e[5mC]*d[5mC]*d[5mC]*dG*dT*d[5mC]*dT*dG*dG*dG*d[5mC]*eT*e[5mC]*e[5mC]*eG*eG) [compound 771359]: 15

// batch mode: one % Inhibition value per listed entry
1. 771416 (e[5mC]*e[5mC]*e[5mC]*e[5mC]*eA*dT*dG*d[5mC]*dG*d[5mC]*dT*d[5mC]*dG*dG*d[5mC]*eT*eG*eT*e[5mC]*e[5mC]; antisense) [compound 771416]
2. 771830 (antisense eT*eT*eT*eA*eG*dG*dT*dA*dG*dA*dG*dT*dG*dG*d[5mC]*e[5mC]*eG*eG*eG*eA) [compound 771830]
3. 771351 (antisense e[5mC]*eT*e[5mC]*eT*e[5mC]*dT*dT*dT*dG*d[5mC]*d[5mC]*d[5mC]*d[5mC]*dA*dA*eA*eA*e[5mC]*eT*e[5mC]) [compound 771351]

Response line:
[58, 40, 11]

// batch mode: one % Inhibition value per listed entry
1. 771875 (antisense e[5mC]*e[5mC]*e[5mC]*e[5mC]*eG*dT*dG*d[5mC]*dA*d[5mC]*dT*d[5mC]*d[5mC]*d[5mC]*dA*eG*e[5mC]*e[5mC]*e[5mC]*eT) [compound 771875]
2. 771464 (antisense eG*eA*eG*eA*eG*dG*dG*d[5mC]*dT*d[5mC]*d[5mC]*dT*dG*dG*dA*e[5mC]*eA*e[5mC]*eA*eG) [compound 771464]

Response line:
51
55
